Just for reference, ChEMBL document CHEMBL1142436 is where these values come from.

Tested on: HCT-15
Test: Growth inhibition of human HCT15 cells after 48 hrs
Format: functional
Conditions: HCT-15, 48 h
Quantity measured: GI50

Briefly, GI50 measured for "Cn1c2ccccc2c2c(=O)n(CCCC(=O)N(C(=O)NC3CCCCC3)C3CCCCC3)c3c(-c4ccccc4)nnn3c21" : > 100 µM

Briefly, GI50 measured for "Cn1c2ccccc2c2c(=O)n(CCCC(=O)NCC(=O)N(C(=O)NC3CCCCC3)C3CCCCC3)c3c(-c4ccccc4)nnn3c21" : 10.7 µM

Briefly, GI50 measured for "CCCCN(CCCC)CCCn1c(=O)c2c3ccccc3n(C)c2n2nnc(-c3ccccc3)c12" : 20.9 µM

Briefly, GI50 measured for "CCOC(=O)CNC(=O)CCCn1c(=O)c2c3ccccc3n(C)c2n2nnc(-c3ccccc3)c12" : > 50.1 µM

Briefly, GI50 measured for "Cn1c2ccccc2c2c(=O)n(CCCC(=O)NCCc3c[nH]cn3)c3c(-c4ccccc4)nnn3c21" : 14.5 µM

Briefly, GI50 measured for COC(=O)C(Cc1c[nH]cn1)NC(=O)CNC(=O)CCCn1c(=O)c2c3ccccc3n(C)c2n2nnc(-c3ccccc3)c12 (stereo unspecified) : > 100 µM

---

System: T47D
Assay: Growth inhibition of human T47D cells after 48 hrs
Format: functional
Field: GI50. Provide a value for each of the molecules that follow.
Report only the number, with the unit µM understood.

Briefly, GI50 measured for "CCOC(=O)CNC(=O)CCCn1c(=O)c2c3ccccc3n(C)c2n2nnc(-c3ccccc3)c12" : 43.7

Briefly, GI50 measured for "CCCCN(CCCC)CCCn1c(=O)c2c3ccccc3n(C)c2n2nnc(-c3ccccc3)c12" : 55

Briefly, GI50 measured for "Cn1c2ccccc2c2c(=O)n(CCCC(=O)NCCc3c[nH]cn3)c3c(-c4ccccc4)nnn3c21" : 10.5

Briefly, GI50 measured for "Cn1c2ccccc2c2c(=O)n(CCCC(=O)N(C(=O)NC3CCCCC3)C3CCCCC3)c3c(-c4ccccc4)nnn3c21" : 56.2

---

Field: TGI. Provide a value for each of the compounds that follow.
Tested on: MDA-MB-231
Test: Growth inhibition of human MDA-MB-231 cells after 48 hrs
Format: functional
Conditions: MDA-MB-231, 48 h, read-out: pTGI (converted)
Report only the number, with the unit µM understood.

Item "Cn1c2ccccc2c2c(=O)n(CCCC(=O)NCCc3c[nH]cn3)c3c(-c4ccccc4)nnn3c21" was tested on MDA-MB-231; the reported TGI is 18.6

Item "Cn1c2ccccc2c2c(=O)n(CCCC(=O)NCC(=O)N(C(=O)NC3CCCCC3)C3CCCCC3)c3c(-c4ccccc4)nnn3c21" was tested on MDA-MB-231; the reported TGI is 38

Item "CCOC(=O)CNC(=O)CCCn1c(=O)c2c3ccccc3n(C)c2n2nnc(-c3ccccc3)c12" was tested on MDA-MB-231; the reported TGI is 30.9

---

Field: GI50. Provide a value for each of the compounds that follow.
Tested on: OVCAR-5
Experiment: Growth inhibition of human OVCAR5 cells after 48 hrs
Type: functional
Conditions: OVCAR-5, 48 h

Briefly, GI50 measured for COC(=O)C(Cc1c[nH]cn1)NC(=O)CNC(=O)CCCn1c(=O)c2c3ccccc3n(C)c2n2nnc(-c3ccccc3)c12 (stereo unspecified) : > 100 µM

Briefly, GI50 measured for "Cn1c2ccccc2c2c(=O)n(CCCC(=O)N(C(=O)NC3CCCCC3)C3CCCCC3)c3c(-c4ccccc4)nnn3c21" : > 100 µM

Briefly, GI50 measured for "Cn1c2ccccc2c2c(=O)n(CCCC(=O)NCCc3c[nH]cn3)c3c(-c4ccccc4)nnn3c21" : 11 µM

Briefly, GI50 measured for "CCCCN(CCCC)CCCn1c(=O)c2c3ccccc3n(C)c2n2nnc(-c3ccccc3)c12" : 22.4 µM

Briefly, GI50 measured for "Cn1c2ccccc2c2c(=O)n(CCCC(=O)NCC(=O)N(C(=O)NC3CCCCC3)C3CCCCC3)c3c(-c4ccccc4)nnn3c21" : 15.5 µM

Briefly, GI50 measured for "CCOC(=O)CNC(=O)CCCn1c(=O)c2c3ccccc3n(C)c2n2nnc(-c3ccccc3)c12" : 27.5 µM
